A collection of molecules and their measured IC50
Target: human ALK2 (Homo sapiens (Human), UniProt Q04771)
Sequence (Q04771 21-509): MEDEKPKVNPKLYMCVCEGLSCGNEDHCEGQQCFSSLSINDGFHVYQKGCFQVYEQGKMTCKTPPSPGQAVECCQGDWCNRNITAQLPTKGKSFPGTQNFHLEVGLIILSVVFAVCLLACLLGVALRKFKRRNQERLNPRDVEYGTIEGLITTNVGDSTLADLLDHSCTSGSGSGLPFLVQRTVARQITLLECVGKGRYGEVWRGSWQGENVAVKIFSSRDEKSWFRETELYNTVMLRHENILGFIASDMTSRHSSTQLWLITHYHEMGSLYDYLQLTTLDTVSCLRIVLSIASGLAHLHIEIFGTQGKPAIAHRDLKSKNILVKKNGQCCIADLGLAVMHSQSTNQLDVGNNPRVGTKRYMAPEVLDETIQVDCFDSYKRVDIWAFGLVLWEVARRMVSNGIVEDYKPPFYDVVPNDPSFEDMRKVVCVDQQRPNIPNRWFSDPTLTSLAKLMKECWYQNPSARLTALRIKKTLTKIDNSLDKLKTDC
Provide the reading as a plain figure in nM.

# annotated cases, reported IC50 shown
[[record]]
item_smiles = "CCn1cc(-c2ccnc(Nc3cccc(CN4CCOCC4)c3)n2)c(-c2cccnc2)n1"
numeric_readout = 68

[[record]]
item_smiles = "CCn1cc(-c2ccnc(Nc3ccc(-c4cnn(C5CCNCC5)c4)cc3)n2)c(-c2cccnc2)n1"
numeric_readout = 36.1

[[record]]
item_smiles = "CCn1cc(-c2ccnc(Nc3ccc(N4CCN(CC5CC5)CC4)cc3)n2)c(-c2cccnc2)n1"
numeric_readout = 6.1

[[record]]
item_smiles = "FC(F)Cn1cc(-c2ccnc(Nc3ccc(N4CCNCC4)cc3)n2)c(-c2cccnc2)n1"
numeric_readout = 62.5

[[record]]
item_smiles = "CCn1cc(-c2ccnc(Nc3ccc4c(c3)CCN(CCOC)C4)n2)c(-c2cccnc2)n1"
numeric_readout = 15

[[record]]
item_smiles = "CCn1cc(-c2ccnc(Nc3ccc(N4CCNCC4)cc3)n2)c(-c2cncc(F)c2)n1"
numeric_readout = 51


Exercise: Would you please give the reported IC50 of c1cncc(-c2nn(C3COC3)cc2-c2ccnc(Nc3ccc(N4CCNCC4)cc3)n2)c1 with human ALK2 (Homo sapiens (Human), UniProt Q04771)?
Solution: 46.2

Exercise: Report IC50 under test system human ALK2 (Homo sapiens (Human), UniProt Q04771) for COCCN1CCN(c2ccc(Nc3nccc(-c4cn(CCOC)nc4-c4cccnc4)n3)cc2)CC1 .
Solution: 10.4

Exercise: State recorded IC50 with human ALK2 (Homo sapiens (Human), UniProt Q04771), entry CCn1cc(-c2ccc(Nc3nccc(-c4cn(CC)nc4-c4cccnc4)n3)cc2)cn1 , no comment.
Solution: 17.7

Exercise: Give IC50 for CCn1cc(-c2ccnc(Nc3ccc4c(c3)CCN(C)C4)n2)c(-c2cccnc2)n1 tested on human ALK2 (Homo sapiens (Human), UniProt Q04771).
Solution: 33

Exercise: Check human ALK2 (Homo sapiens (Human), UniProt Q04771) data and give IC50 for CCn1cc(-c2ccnc(Nc3ccc(N4CCNCC4)nc3)n2)c(-c2cccnc2)n1 .
Solution: 57

Exercise: Enter measured IC50, system human ALK2 (Homo sapiens (Human), UniProt Q04771), for the molecule shown: CCn1cc(-c2ccnc(Nc3ccc4c(c3)CCN(C(C)=O)C4)n2)c(-c2cccnc2)n1
Solution: 28

Exercise: Recall the reported IC50 of CCn1cc(-c2ccnc(Nc3ccc(N4CCN(CCOC)CC4)cc3)n2)c(-c2cccnc2)n1 on human ALK2 (Homo sapiens (Human), UniProt Q04771) and write it down.
Solution: 54

Exercise: Lab note: human ALK2 (Homo sapiens (Human), UniProt Q04771) assay, enter IC50 for CCn1cc(-c2ccnc(Nc3ccc4c(c3)CNCC4)n2)c(-c2cccnc2)n1 here
Solution: 18

====

Target: human ALK6 (Homo sapiens (Human))
Sequence (O00238 14-502): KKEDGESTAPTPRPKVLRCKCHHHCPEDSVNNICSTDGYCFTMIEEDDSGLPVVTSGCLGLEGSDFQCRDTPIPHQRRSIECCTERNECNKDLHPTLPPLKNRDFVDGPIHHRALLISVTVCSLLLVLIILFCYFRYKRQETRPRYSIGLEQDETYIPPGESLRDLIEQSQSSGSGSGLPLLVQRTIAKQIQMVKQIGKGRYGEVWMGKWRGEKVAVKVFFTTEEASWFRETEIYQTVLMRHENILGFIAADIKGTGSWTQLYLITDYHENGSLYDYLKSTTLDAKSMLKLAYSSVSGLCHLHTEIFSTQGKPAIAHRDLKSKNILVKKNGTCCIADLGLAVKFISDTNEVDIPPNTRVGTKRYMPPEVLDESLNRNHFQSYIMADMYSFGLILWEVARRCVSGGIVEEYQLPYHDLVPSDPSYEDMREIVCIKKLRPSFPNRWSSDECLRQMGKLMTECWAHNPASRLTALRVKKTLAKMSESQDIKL
Assay: ALK6 enzyme inhibitory effect (33P-ATP kinase assay, Reaction Biology)
Assay type: biochemical
Conditions: ALK6, test compound 300 nM; read-out: Inhibition rate at 300 nM
Label satisfied when inhibition at 0.3 µM is at or above 90%; otherwise label not satisfied.

Worked examples follow.
[[record]]
compound = "CCn1cc(-c2ccnc(Nc3ccc4c(c3)CCNC4)n2)c(-c2cccnc2)n1 [Example 168]"
study_system = "human ALK6 (Homo sapiens (Human))"
answer_label = "satisfied"

[[record]]
compound = "CCn1cc(-c2ccnc(Nc3ccc(N4CCNCC4)cc3)n2)c(-c2cncc(F)c2)n1 [Example 148]"
study_system = "human ALK6 (Homo sapiens (Human))"
answer_label = "not satisfied"

[[record]]
compound = "CCn1cc(-c2ccnc(Nc3ccc(N4CCNCC4)c(F)c3)n2)c(-c2cccnc2)n1 [Example 152]"
study_system = "human ALK6 (Homo sapiens (Human))"
answer_label = "not satisfied"


We next turn to a different compound, shown below.
Exercise: I'd appreciate it if you could say whether CCn1cc(-c2ccnc(Nc3ccc4c(c3)CCN(C(=O)CO)C4)n2)c(-c2cccnc2)n1 [Example 175] has inhibition at 0.3 µM at least equal to 90%.
Solution: satisfied

====

Reported values of pIC50 for individual entries
System: BMP signal in MDA-231-D-BREFluc/Rluc cells
Assay: BMP signal inhibitory effect (AlphaScreen SureFire SMAD1 p-Ser463/465, BMP-6 stimulation)
Format: cell-based
Details: BMP-6 stimulated MDA-231-D-BREFluc/Rluc cells, phospho-SMAD1 AlphaScreen; read-out: IC50
Where a name gives a salt, the structure may show the parent alone.
To interpret pIC50, take it as minus log10 of a concentration measured in moles per litre.

[[record]]
compound = "CCn1cc(-c2ccnc(Nc3ccc(N4CCN(CC(N)=O)CC4)cc3)n2)c(-c2cccnc2)n1 [Example 87]"
study_system = "BMP signal in MDA-231-D-BREFluc/Rluc cells"
numeric_readout = 7.53

[[record]]
compound = "c1cncc(-c2nn(C3COC3)cc2-c2ccnc(Nc3ccc(N4CCN(C5COC5)CC4)cc3)n2)c1 [Example 101]"
study_system = "BMP signal in MDA-231-D-BREFluc/Rluc cells"
numeric_readout = 7.15

[[record]]
compound = "CCn1cc(-c2ccnc(Nc3ccc(N4CCN(C)CC4)c(OC)c3)n2)c(-c2cccnc2)n1 [Example 47]"
study_system = "BMP signal in MDA-231-D-BREFluc/Rluc cells"
numeric_readout = 7.99


Exercise: Quote pIC50 reported for CN1CCc2cc(Nc3nccc(-c4cn(CC5CCOC5)nc4-c4cccnc4)n3)ccc2C1 (stereo not shown) [Example 10] please.
Solution: 8.24

Exercise: # return recorded pIC50 for entry CN1CCCC1CN1CCN(c2ccc(Nc3nccc(-c4cn(C5COC5)nc4-c4cccnc4)n3)cc2)CC1 (stereo not shown) [Example 79]
Solution: 7.45

Exercise: Please supply the value of reported pIC50 for the item CCn1cc(-c2ccnc(Nc3cnn(C4CCN(CCOC)CC4)c3)n2)c(-c2cccnc2)n1 [Example 55, oxalate]
Solution: 7.67

Exercise: Please indicate pIC50 recorded for CCn1cc(-c2ccnc(Nc3ccc(N4CCN(CC(C)(C)O)CC4)cc3)n2)c(-c2cccnc2)n1 [Example 104]
Solution: 7.79

====

Molecular target: UniProt:O00238
Assay: ALK6 enzyme inhibitory effect (33P-ATP kinase assay, Reaction Biology)
Type: biochemical
Conditions: ALK6, test compound 300 nM; read-out: Inhibition rate at 300 nM
Outcome: Satisfied for inhibition at 0.3 µM of at least 90%; Not satisfied for anything lower.

[[record]]
compound = "FC(F)Cn1cc(-c2ccnc(Nc3ccc(N4CCNCC4)cc3)n2)c(-c2cccnc2)n1 [Example 149]"
study_system = "UniProt:O00238"
answer_label = "Not satisfied"

[[record]]
compound = "CCn1cc(-c2ccnc(Nc3ccc4c(c3)CNCC4)n2)c(-c2cccnc2)n1 [Example 169]"
study_system = "UniProt:O00238"
answer_label = "Satisfied"

[[record]]
compound = "CC(C)(C)n1cc(-c2ccnc(Nc3ccc(N4CCNCC4)cc3)n2)c(-c2cccnc2)n1 [Example 135]"
study_system = "UniProt:O00238"
answer_label = "Not satisfied"

[[record]]
compound = "COCCn1cc(-c2ccnc(Nc3ccc(N4CCNCC4)cc3)n2)c(-c2cccnc2)n1 [Example 71]"
study_system = "UniProt:O00238"
answer_label = "Not satisfied"


We now examine a further compound.
Exercise: Please tell me: is the compound CCn1cc(-c2ccnc(Nc3ccc4c(c3)CCN(CCOC)C4)n2)c(-c2cccnc2)n1 [Example 126] at or over 90% in terms of inhibition at 0.3 µM?
Solution: Not satisfied

====

Tested on: BMP signal in MDA-231-D-BREFluc/Rluc cells
Test: BMP signal inhibitory effect (AlphaScreen SureFire SMAD1 p-Ser463/465, BMP-6 stimulation)
Type: cell-based
Settings: BMP-6 stimulated MDA-231-D-BREFluc/Rluc cells, phospho-SMAD1 AlphaScreen; read-out: IC50
PARAMETER MEASURED: IC50
# do not omit the unit; it follows the number

[[record]]
molecule = "c1cncc(-c2n[nH]cc2-c2ccnc(Nc3ccc(OCCN4CCOCC4)cc3)n2)c1"
study_system = "BMP signal in MDA-231-D-BREFluc/Rluc cells"
result = "48.5 nM"

[[record]]
molecule = "COCCN1CCC(c2ccc(Nc3nccc(-c4cn(CCOC)nc4-c4cccnc4)n3)cc2)CC1"
study_system = "BMP signal in MDA-231-D-BREFluc/Rluc cells"
result = "13 nM"

[[record]]
molecule = "CCn1cc(-c2ccnc(Nc3ccc(C(=O)N4CCN(C(C)(C)C)CC4)cc3)n2)c(-c2cccnc2)n1"
study_system = "BMP signal in MDA-231-D-BREFluc/Rluc cells"
result = "6.9 nM"


Exercise: Look up IC50 of CCn1cc(-c2ccnc(Nc3ccc(C4CCN(CCOC)C4)cc3)n2)c(-c2cccnc2)n1 (centres unmarked) and report it.
Solution: 6.3 nM

Exercise: State, in one line, measured IC50 of CCn1cc(-c2ccnc(Nc3cnn(C4CCN(CC(C)(C)O)CC4)c3)n2)c(-c2cccnc2)n1
Solution: 8.2 nM

Exercise: Answer with the recorded IC50 for the molecule listed here: CCn1cc(-c2ccnc(Nc3ccc(N4CCN(CC5CCCN5C)CC4)cc3)n2)c(-c2cccnc2)n1 (centres unmarked)
Solution: 12.7 nM

Exercise: Supply measured IC50 of c1cncc(-c2nn(C3COC3)cc2-c2ccnc(Nc3ccc(N4CCN(CC5CC5)CC4)cc3)n2)c1 in your reply.
Solution: 10.4 nM

Exercise: Given the molecule CCn1cc(-c2ccnc(Nc3ccc(N4CCC(C)(N)CC4)cc3)n2)c(-c2cccnc2)n1 , write its reported IC50.
Solution: 7.3 nM
